- Test name: yeast display, Sf9 membrane polyspecificity reagent, FACS + sequencing; frameworks hold sequencing errors
Assay endpoint: polyreactivity (PSR sort gate)

Here are 4 sequences together with their reported answers.
[
  {
    "Input sequence": "QVQLVESGGGLVQAGGSLRLSCAASGSIFFENDMGWYRQAPGKEREFVAAISLSSASTYYADSVKGRFTISRDNAKNTVYLQMNSLKPEDTAVYYCAADAIFGWPTFDYWGQGTQVTVSS",
    "polyreactivity (PSR sort gate)": "low polyreactivity"
  },
  {
    "Input sequence": "QVQLVESGGGLVQAGGSLRLSCAASGLIFVWYALGWSRQAPGKERELVAAISWRGGTTYYADSVKGRFTISRDNAKNTVYLQMNSLKPEDTAVYYCNAEGSQVDYLRYVWYDMDYWGQGTQVTVSS",
    "polyreactivity (PSR sort gate)": "low polyreactivity"
  },
  {
    "Input sequence": "QVQLVESGGGLVQAGGSLRLSCAASGLTFYYYAMGWYRQAPGKERELVAAISRSGGSTYYADSVKGRFTISRDNAKNTVYLQMNSLKPEDTAVYYCAAYGPASVYEVAMDYWGQGTQVTVSS",
    "polyreactivity (PSR sort gate)": "high polyreactivity"
  },
  {
    "Input sequence": "QVQLVESGGGLVQAGGSLRLSCAASGRTLFYYTMGWYRQAPGKERELVAAISSGDSTNYADSVKGRFTISRDNAKNTVYLQMNRLKPEDTAVYYCATQYLLDYKKTYRTYYSPYDYWGQGTQVTVSS",
    "polyreactivity (PSR sort gate)": "low polyreactivity"
  }
]

(Q) // Input: LVQLVESGGGLVQAGGSLRLICAASGSIFSGYAMGWYRQAPGNERELVAAITRSGGRTYYADSVKGRFTISRDNAKNTVYLQMNSLKPEDTAGYYCATLPRYYGYWGQGTQVTVSS . Output its polyreactivity (PSR sort gate) only.
(A) high polyreactivity

meta.source: the nanobody polyreactivity screen of Harvey et al. (2022)
